Sourced from patent US8796313B2

targetSystem: human pancreas Glucokinase (GK) (Homo sapiens)
Construct: His6; made in house; host or cells: Escherichia coli
measurementNotes: Glucokinase enzyme assay, pancreas GK
Format: biochemical
cond: increase in GK activity above vehicle control, compound 50 μM, 12 mM glucose

compound	endpointUnit	activation at 50 µM
N#Cc1ccc(NC(=O)CCC2c3c(F)cccc3C(=O)N2Cc2ccc(F)cc2)nc1 (stereo not shown)	%	114
O=C(CCC1c2ccccc2C(=O)N1Cc1ccc(F)cc1)Nc1ccc(C(=O)O)cn1 (stereo not shown)	%	153
COC(=O)c1ccc(NC(=O)CC[C@@H]2c3c(F)cccc3C(=O)N2Cc2ccc(F)cc2)nc1	%	38.6
O=C(O)Cc1csc(NC(=O)CCC2c3c(F)ccc(F)c3C(=O)N2Cc2ccc(F)cc2)n1 (stereo not shown)	%	73.7

====

targetSystem: human liver Glucokinase (GK) (Homo sapiens, UniProt P35557)
Construct: His6; made in house; host or cells: Escherichia coli
Sequence (P35557 1-466 isoform P35557-2): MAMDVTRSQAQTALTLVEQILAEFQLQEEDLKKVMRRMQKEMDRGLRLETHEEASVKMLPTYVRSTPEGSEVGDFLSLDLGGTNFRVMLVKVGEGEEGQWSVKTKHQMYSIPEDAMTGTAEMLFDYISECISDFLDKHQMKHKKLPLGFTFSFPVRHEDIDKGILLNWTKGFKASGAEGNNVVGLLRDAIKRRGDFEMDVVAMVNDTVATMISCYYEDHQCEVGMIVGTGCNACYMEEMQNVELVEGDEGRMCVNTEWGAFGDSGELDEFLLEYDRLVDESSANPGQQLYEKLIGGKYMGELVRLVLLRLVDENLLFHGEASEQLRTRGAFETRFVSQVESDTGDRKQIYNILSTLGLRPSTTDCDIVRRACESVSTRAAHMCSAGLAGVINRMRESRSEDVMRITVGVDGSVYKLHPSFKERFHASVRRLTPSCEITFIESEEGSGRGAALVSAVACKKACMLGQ
measurementNotes: Glucokinase enzyme assay, liver GK
Type: biochemical
cond: concentration that produces 50% activation above vehicle control
Parameter: EC50. Scope: all listed entries.

molecule	endpointUnit	EC50
COC(=O)c1ccc(NC(=O)CCC2c3ccccc3C(=O)N2Cc2ccccc2)nc1 (stereo not shown) [Compound 2]	µM	1.29
O=C(CCC1c2ccccc2C(=O)N1Cc1ccccc1)Nc1ccc(C(=O)O)cn1 (stereo not shown) [Compound 5]	µM	1.9
O=C(CCC1c2ccccc2C(=O)N1Cc1ccccc1)Nc1ccccn1 (stereo not shown) [Compound 3]	µM	2.52
O=C(CCC1c2ccccc2C(=O)N1Cc1ccccc1)Nc1nccs1 (stereo not shown) [Compound 1]	µM	15

====

targetSystem: human pancreas Glucokinase (GK) (Homo sapiens)
Construct: His6; made in house; host or cells: Escherichia coli
measurementNotes: Glucokinase enzyme assay, pancreas GK
Format: biochemical
cond: concentration that produces 100% activation above vehicle control
Form field: EC100% (one value per entry).

molecule	EC100% [µM]
O=C(CCC1c2c(F)cccc2C(=O)N1Cc1ccc(F)cc1)Nc1ccc(C(=O)O)cn1 (stereo not drawn) [Compound 11]	0.128
CN(C)c1ccc(CN2C(=O)c3cccc(F)c3C2CCC(=O)Nc2ccc(C(=O)O)cn2)cc1 (stereo not drawn) [Compound 49]	0.34
O=C(CCC1c2c(F)cccc2C(=O)N1Cc1ccc(F)cc1)Nc1cc2ccccc2cn1 (stereo not drawn) [Compound 29]	0.32

====

targetSystem: human pancreas Glucokinase (GK) (Homo sapiens, UniProt P35557)
Construct: His6; made in house; host or cells: Escherichia coli
Sequence (P35557 whole entry): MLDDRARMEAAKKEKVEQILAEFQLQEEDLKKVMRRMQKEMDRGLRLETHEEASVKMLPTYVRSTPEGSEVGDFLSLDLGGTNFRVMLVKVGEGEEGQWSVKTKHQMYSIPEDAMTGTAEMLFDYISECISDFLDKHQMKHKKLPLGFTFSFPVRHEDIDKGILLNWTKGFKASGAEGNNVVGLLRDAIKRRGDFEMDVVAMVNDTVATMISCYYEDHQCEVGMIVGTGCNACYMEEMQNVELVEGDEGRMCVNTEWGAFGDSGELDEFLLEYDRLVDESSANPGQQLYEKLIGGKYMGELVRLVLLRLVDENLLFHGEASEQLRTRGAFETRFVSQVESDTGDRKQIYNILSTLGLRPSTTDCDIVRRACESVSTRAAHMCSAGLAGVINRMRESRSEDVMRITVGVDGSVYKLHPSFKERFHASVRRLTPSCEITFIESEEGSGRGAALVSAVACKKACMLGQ
measurementNotes: Glucokinase enzyme assay, pancreas GK
Assay type: biochemical
cond: concentration that produces 100% activation above vehicle control
Please use yes (1) whenever EC100% is not below 4 µM, and no (0) whenever it is.

compound	targetSystem	classification
O=C(CCC1c2ccccc2C(=O)N1Cc1ccc(F)cc1)Nc1ccc(C(=O)O)cn1 (stereo not shown)	human pancreas Glucokinase (GK) (Homo sapiens, UniProt P35557)	yes (1)
CCOC(=O)c1csc(NC(=O)CCC2c3c(F)ccc(F)c3C(=O)N2Cc2ccc(F)cc2)n1 (stereo not shown)	human pancreas Glucokinase (GK) (Homo sapiens, UniProt P35557)	yes (1)
COc1ccc(CN2C(=O)c3ccccc3C2COC(=O)Nc2ccccn2)cc1 (stereo not shown)	human pancreas Glucokinase (GK) (Homo sapiens, UniProt P35557)	yes (1)
O=C(CCC1c2ccccc2C(=O)N1Cc1ccccc1)Nc1ccc(C(=O)O)cn1 (stereo not shown)	human pancreas Glucokinase (GK) (Homo sapiens, UniProt P35557)	yes (1)
O=C(CCC1c2c(F)cccc2C(=O)N1Cc1ccc(F)cc1)Nc1ccc(-c2ccccc2)cn1 (stereo not shown)	human pancreas Glucokinase (GK) (Homo sapiens, UniProt P35557)	yes (1)
O=C(CCC1c2c(F)cccc2C(=O)N1Cc1ccc(-n2cccc2)cc1)Nc1ccc(F)cn1 (stereo not shown)	human pancreas Glucokinase (GK) (Homo sapiens, UniProt P35557)	no (0)
O=C(CCC1c2c(Cl)ccc(Cl)c2C(=O)N1Cc1ccc(F)cc1)Nc1ccccn1 (stereo not shown)	human pancreas Glucokinase (GK) (Homo sapiens, UniProt P35557)	no (0)
COC(=O)c1ccc(NC(=O)CC[C@H]2c3c(F)cccc3C(=O)N2Cc2ccc(F)cc2)nc1	human pancreas Glucokinase (GK) (Homo sapiens, UniProt P35557)	no (0)
O=C(CCC1c2c(F)cccc2C(=O)N1Cc1ccc(F)cc1)Nc1ccc(Cl)cn1 (stereo not shown)	human pancreas Glucokinase (GK) (Homo sapiens, UniProt P35557)	no (0)
O=C(CCC1c2c(F)cccc2C(=O)N1Cc1ccc(F)cc1)Nc1ccc(F)cn1 (stereo not shown)	human pancreas Glucokinase (GK) (Homo sapiens, UniProt P35557)	no (0)
O=C(CCC1c2c(F)cccc2C(=O)N1Cc1ccc(F)cc1)Nc1ccccn1 (stereo not shown)	human pancreas Glucokinase (GK) (Homo sapiens, UniProt P35557)	no (0)
O=C(CCC1c2c(F)cccc2C(=O)N1Cc1ccc(F)cc1)Nc1ccc(-c2ccc(F)cc2)cn1 (stereo not shown)	human pancreas Glucokinase (GK) (Homo sapiens, UniProt P35557)	yes (1)
O=C(CCC1c2cccc(Cl)c2C(=O)N1Cc1ccc(F)cc1)Nc1ccc(Br)cn1 (stereo not shown)	human pancreas Glucokinase (GK) (Homo sapiens, UniProt P35557)	no (0)
NS(=O)(=O)c1ccc(NC(=O)CCC2c3c(F)cccc3C(=O)N2Cc2ccc(F)cc2)nc1 (stereo not shown)	human pancreas Glucokinase (GK) (Homo sapiens, UniProt P35557)	yes (1)
O=C(CCC1c2c(F)cccc2C(=O)N1Cc1ccc(F)cc1)Nc1ccc(C(=O)OCc2ccccc2)cn1 (stereo not shown)	human pancreas Glucokinase (GK) (Homo sapiens, UniProt P35557)	no (0)
COCOCc1ccc(NC(=O)CCC2c3c(F)cccc3C(=O)N2Cc2ccc(F)cc2)nc1 (stereo not shown)	human pancreas Glucokinase (GK) (Homo sapiens, UniProt P35557)	no (0)

====

targetSystem: human pancreas Glucokinase (GK) (Homo sapiens, UniProt P35557)
Construct: His6; made in house; host or cells: Escherichia coli
measurementNotes: Glucokinase enzyme assay, pancreas GK
Format: biochemical
cond: concentration that produces 50% activation above vehicle control
pEC50: −log10 of the molar value.

molecule	pEC50
O=C(CCC1c2c(F)cccc2C(=O)N1Cc1ccc(F)cc1)Nc1ccc(Br)cn1 (stereo not drawn)	7.89
COC(=O)c1ccc(NC(=O)CCC2c3ccccc3C(=O)N2Cc2ccc(OC)cc2)nc1 (stereo not drawn)	6.40
CN(C)c1ccc(CN2C(=O)c3cccc(F)c3C2CCC(=O)Nc2ccc(C(=O)O)cn2)cc1 (stereo not drawn)	7.22
COCOCc1ccc(NC(=O)CCC2c3c(F)cccc3C(=O)N2Cc2ccc(F)cc2)nc1 (stereo not drawn)	6.64
O=C(CCC1c2c(F)cccc2C(=O)N1Cc1ccc(F)cc1)Nc1cc2ccccc2cn1 (stereo not drawn)	7.34
O=C(CCC1c2c(F)cccc2C(=O)N1Cc1ccc(F)cc1)Nc1ccc2ccccc2n1 (stereo not drawn)	6.89
O=C(CCC1c2cccc(Cl)c2C(=O)N1Cc1ccc(F)cc1)Nc1ccc(Br)cn1 (stereo not drawn)	6.76
O=C(CCC1c2cccc(Cl)c2C(=O)N1Cc1ccc(F)cc1)Nc1ccccn1 (stereo not drawn)	6.64
COC(=O)c1ccc(NC(=O)CC[C@H]2c3c(F)cccc3C(=O)N2Cc2ccc(F)cc2)nc1	8.05
O=C(CCC1c2c(Cl)cccc2C(=O)N1Cc1ccc(F)cc1)Nc1ccccn1 (stereo not drawn)	6.84
O=C(CCC1c2ccccc2C(=O)N1Cc1ccccc1)Nc1ccc(C(=O)O)cn1 (stereo not drawn)	5.54
CCOC(=O)/C=C/c1ccc(NC(=O)CCC2c3c(F)cccc3C(=O)N2Cc2ccc(F)cc2)nc1 (stereo not drawn)	6.90
O=C(CCC1c2c(F)cccc2C(=O)N1Cc1ccc(F)cc1)Nc1ccc(F)cn1 (stereo not drawn)	6.97
N#Cc1ccc(NC(=O)CCC2c3c(F)cccc3C(=O)N2Cc2ccc(F)cc2)nc1 (stereo not drawn)	6.38
O=C(CCC1c2c(F)cccc2C(=O)N1Cc1ccc(F)cc1)Nc1cnccn1 (stereo not drawn)	6.62
COc1ccc(CN2C(=O)c3ccccc3C2CCC(=O)Nc2ccc(C(=O)O)cn2)cc1 (stereo not drawn)	5.49
O=C(O)Cc1csc(NC(=O)CCC2c3c(F)ccc(F)c3C(=O)N2Cc2ccc(F)cc2)n1 (stereo not drawn)	4.68
COc1ccc(CN2C(=O)c3ccccc3C2COC(=O)Nc2ccccn2)cc1 (stereo not drawn)	5.32
O=C(CCC1c2c(F)cccc2C(=O)N1Cc1ccc(F)cc1)Nc1ccccn1 (stereo not drawn)	7.03
O=C(CCC1c2c(F)ccc(F)c2C(=O)N1Cc1ccc(F)cc1)Nc1ccc(C(=O)O)cn1 (stereo not drawn)	6.69
CS(=O)(=O)c1ccc(NC(=O)CCC2c3c(F)cccc3C(=O)N2Cc2ccc(F)cc2)nc1 (stereo not drawn)	4.77
O=C(CCC1c2cccc(F)c2C(=O)N1Cc1ccc(F)cc1)Nc1ccc(C(=O)O)cn1 (stereo not drawn)	6.28
O=C(CCC1c2c(F)cccc2C(=O)N1Cc1ccc(-n2cccc2)cc1)Nc1ccc(F)cn1 (stereo not drawn)	6.74
NS(=O)(=O)c1ccc(NC(=O)CCC2c3c(F)cccc3C(=O)N2Cc2ccc(F)cc2)nc1 (stereo not drawn)	6.39
CC(=O)c1ccc(NC(=O)CCC2c3c(F)cccc3C(=O)N2Cc2ccc(F)cc2)nc1 (stereo not drawn)	7.27
O=C(CCC1c2c(F)cccc2C(=O)N1Cc1ccc(F)cc1)Nc1ccc(Cl)cn1 (stereo not drawn)	7.15
O=C(CCC1c2c(F)cccc2C(=O)N1Cc1ccc(F)cc1)Nc1ncc(Br)s1 (stereo not drawn)	4.40
O=C(CCC1c2c(F)cccc2C(=O)N1Cc1ccc(F)cc1)Nc1ccc(C(=O)O)cn1 (stereo not drawn)	7.17
O=C(CCC1c2c(F)cccc2C(=O)N1Cc1ccc(F)cc1)Nc1ccc(-c2ccc(F)cc2)cn1 (stereo not drawn)	6.31
O=C(CCC1c2c(F)cccc2C(=O)N1Cc1ccc(F)cc1)Nc1ccc(C(=O)OCc2ccccc2)cn1 (stereo not drawn)	6.66
O=C(CCC1c2c(F)ccc(F)c2C(=O)N1Cc1ccc(F)cc1)Nc1ccc(C(F)(F)F)cn1 (stereo not drawn)	5.70
Cc1ccc(NC(=O)CCC2c3c(F)cccc3C(=O)N2Cc2ccc(F)cc2)nc1 (stereo not drawn)	7.27
O=C(CCC1c2c(F)cccc2C(=O)N1Cc1ccc(F)cc1)Nc1ccc(Cl)nn1 (stereo not drawn)	6.20
